# assay-target: Ribosomal protein S6 kinase alpha-4 (Homo sapiens);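 further: mean inhibition of MSK2, GSK PKIS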
# test-settings: at 1 µM
Could you please report measured inhibition for the items listed next?
Units required after the number.

[[record]]
input_smiles = "COc1cc2ncn(-c3cc(OCc4ccccc4C(F)(F)F)c(C(=O)N(C)C)s3)c2cc1OC"
assay_target = "Ribosomal protein S6 kinase alpha-4 (Homo sapiens)"
quantity_kind = "inhibition"
value_observed = "0.89%"

[[record]]
input_smiles = "CC(=O)NCc1cccc(C#Cc2cncnc2Nc2ccc(OCc3cccc(F)c3)c(Cl)c2)c1"
assay_target = "Ribosomal protein S6 kinase alpha-4 (Homo sapiens)"
quantity_kind = "inhibition"
value_observed = "4%"


Lab note: next molecule to report on.
Problem: Name the reported inhibition value associated with the molecule "CN1CCC(n2cnc(-c3ccc(F)cc3)c2-c2ccnc(Nc3ccccc3)n2)CC1"
Result: 3.56%
